FYI, the data here is from ChEMBL document CHEMBL6109084.

pIC50: −log10 of the molar value.
pIC50, Coagulation factor XI (Homo sapiens): measured values
measurement.type: pIC50

> print(dat)
                                   molecule                         target.system  measurement.type  qualifier.symbol  meas.value
1  CC[C@H](c1cc(-c2ccc(N)nc2)ccn1)n1cc(OC)c(-c2cc(Cl)ccc2-n2cnnn2)cc1=O  Coagulation factor XI (Homo sapiens)             pIC50                 =        7.97
2  COc1cn(Cc2cccc(-c3ccncc3)c2)c(=O)cc1-c1cc(Cl)ccc1-n1cnnn1  Coagulation factor XI (Homo sapiens)             pIC50                 =        9.30
3  COc1cn(Cc2cc(-c3ccc(N)nc3F)ccn2)c(=O)cc1-c1cc(Cl)ccc1-n1cnnn1  Coagulation factor XI (Homo sapiens)             pIC50                 =        9.72
4  CCC(c1cc(-c2ccc(N)nc2F)ccn1)n1cc(OC)c(-c2cc(Cl)ccc2-n2cnnn2)cc1=O (racemic)  Coagulation factor XI (Homo sapiens)             pIC50                 =        9.41
5  COc1cn(Cc2cccc(-c3ccc(NC(C)=O)cc3)c2)c(=O)cc1-c1cc(Cl)ccc1-n1cnnn1  Coagulation factor XI (Homo sapiens)             pIC50                 =        8.19
6  COc1cn(Cc2ccc(F)c(-c3ccc(O)cc3)c2)c(=O)cc1-c1cc(Cl)ccc1-n1cnnn1  Coagulation factor XI (Homo sapiens)             pIC50                 =        8.85
7  COc1cn(Cc2ccc(-c3ccc(O)cc3)cc2)c(=O)cc1-c1cc(Cl)ccc1-n1cnnn1  Coagulation factor XI (Homo sapiens)             pIC50                 =        6.69
8  COc1cn(Cc2cccc(-c3ccncc3)c2)c(=O)cc1-c1cc(Cl)ccc1OC(F)F  Coagulation factor XI (Homo sapiens)             pIC50                 <        6.30
